We begin with a simple list: items and their reported composite z-score.
tested on: Wnt5a (protein binding on small-molecule microarray); experiment: small molecules binding Wnt5a protein – biophysical, small-molecule microarray, 635/667 nm fluorescence, primary screen (AID 1142); settings: 635 nm fluorescence, higher = more signal;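 also: fluorescence read at 667 nm with signal to noise per printed feature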

molecule	composite z-score
CC(C)NC(=O)[C@@H]1c2ccccc2C(=O)N(Cc2ccc(OC(F)(F)F)cc2)[C@H]1c1ccc(CO)cc1	0.663
COC(=O)C(CC#Cc1ccc2c(c1)[C@]1(C(=O)N2)[C@H](C(=O)N2CCc3cc(OC)c(OC)cc3C2)[C@H]2C(=O)O[C@H](c3ccccc3)[C@H](c3ccccc3)N2[C@@H]1c1ccccc1OCCO)C(=O)OC	0.345
O=C1O[C@@H](c2ccccc2)[C@@H](c2ccccc2)N2[C@@H](c3ccc(OCCO)cc3)[C@]3(C(=O)Nc4ccc(C#CC5(O)CCCCCC5)cc43)[C@@H](C(=O)Nc3nc4ccccc4s3)[C@H]12	0.41
CN(C)c1ccc(C(O)C2C=CC3C(=O)N(Cc4ccccc4)C(=O)C3N2n2cnnc2)cc1 (stereo unspecified)	-0.347
O=C1C[C@@](C(=O)NC2CC2)(c2ccc([N+](=O)[O-])cc2)[C@@H](c2ccc(CO)cc2)N1C1CCCCC1	0.755
CN(C)CCCNC(=O)[C@@]1(Cc2ccccc2I)c2ccccc2C(=O)N(C2CCCCC2)[C@H]1c1ccc(CO)cc1	0.418

---

system: Sonic hedgehog protein (Shh); test: Sonic hedgehog microarray binding compounds – biochemical, small-molecule microarray, 635/667 nm fluorescence, primary screen (AID 1151); details: 635 nm fluorescence, higher = more signal;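 also: Shh protein binding to compounds spotted on small-molecule microarray slides; score combines spot fluorescence intensity with signal-to-noise across triplicate slides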
experimental readout: composite z-score

compound	system	result
O=C(NCC(O)CO)[C@@]1(CCS(=O)(=O)c2ccccc2)N=C(c2ccc(OCCCO)cc2)O[C@H]1c1ccccc1 (stereo partly drawn)	Sonic hedgehog protein (Shh)	-1.04
CC(C)(C)OC(=O)CC[C@]1(C(=O)NCC(O)CO)N=C(c2ccc(OCCCO)cc2)O[C@H]1c1ccccc1N=[N+]=[N-] (stereo partly drawn)	Sonic hedgehog protein (Shh)	0.0555
COC(=O)c1cccc([C@H]2OC(=CC(=O)OC(C)C)C[C@@H](c3cccc(C(=O)OC)c3)O2)c1	Sonic hedgehog protein (Shh)	1
COc1ccc([Si](C)(C)[C@@H]2[C@@H](CC(=O)N3CCC[C@H]3CO)O[C@]3(C(=O)N(Cc4cccc(N5CCCCC5=O)c4)c4ccccc43)[C@H]2C)cc1	Sonic hedgehog protein (Shh)	1.68
CCCCC(O)C1C=CC2C(=O)N(c3ccccc3)C(=O)C2N1Nc1ccccc1 (stereo not drawn)	Sonic hedgehog protein (Shh)	-1.35
C=CCNC(=O)[C@H]1[C@@H]2C(=O)O[C@@H](c3ccccc3)[C@@H](c3ccccc3)N2[C@@H](c2ccc(OCCO)cc2)[C@]12C(=O)Nc1ccc(C#CC3(O)CCCCCC3)cc12	Sonic hedgehog protein (Shh)	1.31
[N-]=[N+]=Nc1ccccc1C[C@]1(C(=O)N2CCOCC2)N=C(c2ccc(OCCCO)cc2)O[C@H]1c1ccccc1N=[N+]=[N-]	Sonic hedgehog protein (Shh)	1.76
CCCC=C(CCC)[C@@H](NC(=O)c1ccc(C(F)(F)F)cc1)c1ccc(C(F)(F)F)cc1	Sonic hedgehog protein (Shh)	-0.605
O=C1C[C@@](C(=O)O)(c2ccc([N+](=O)[O-])cc2)[C@@H](c2ccc(CO)cc2)N1C1CCCCC1	Sonic hedgehog protein (Shh)	0.478
N#Cc1ccc(C(O)C2C=CC3C(=O)NC(=O)C3N2Nc2ccc(Cl)cc2Cl)cc1 (stereo not drawn)	Sonic hedgehog protein (Shh)	-0.855
NC(=O)N1C(=O)C2C(C1=O)C1C=C(CCCO)C2C(c2ccc(CN3CCCC3)cc2)N1Cc1sc2ccccc2c1Cl (stereo not drawn)	Sonic hedgehog protein (Shh)	0.287
COc1ccc([Si](C)(C)[C@@H]2[C@@H](CC(=O)N(CCO)Cc3ccccc3)O[C@]3(C(=O)N(Cc4ccc(N5C(=O)c6cccc7cccc5c67)cc4)c4ccccc43)[C@H]2C)cc1	Sonic hedgehog protein (Shh)	1.8
COC(=O)[C@]1(CCC(=O)OC(C)(C)C)N=C(c2ccc(OCCCO)cc2)O[C@@H]1c1ccccc1N=[N+]=[N-]	Sonic hedgehog protein (Shh)	0.886
O=C(NCCN1CCOCC1)[C@@H]1c2ccccc2C(=O)N(Cc2ccc(OC(F)(F)F)cc2)[C@H]1c1ccc(CO)cc1	Sonic hedgehog protein (Shh)	-0.0784
[N-]=[N+]=Nc1ccccc1[C@H]1OC(c2ccc(OCCCO)cc2)=N[C@@]1(Cc1ccccc1)C(=O)NCC(O)CO (stereo partly drawn)	Sonic hedgehog protein (Shh)	-1.32
CC1CC/C=C\[C@H]2OC34C=CCN(Cc5ccccc5)C(=O)[C@H]3N(CCCCCCO)C(=O)[C@@H]4C2C(=O)O1 (stereo partly drawn)	Sonic hedgehog protein (Shh)	0.06
COc1ccc([Si](C)(C)[C@H]2[C@H](CCO)O[C@@]3(C(=O)N(Cc4cccc(N(C=O)c5ccccc5)c4)c4ccccc43)[C@@H]2C)cc1	Sonic hedgehog protein (Shh)	1.78
O=C1C[C@@](C(=O)NC2CC2)(c2ccc([N+](=O)[O-])cc2)[C@@H](c2ccc(CO)cc2)N1C1CCCCC1	Sonic hedgehog protein (Shh)	2.18
O=C1[C@H]2C=C(I)[C@H](C[C@@H]2OCCCCCCO)[C@@]12CO2	Sonic hedgehog protein (Shh)	1.07
CCCCCC1=C2CNC(Cc3ccccc3)(C(=O)OC)C=C2C(C)C1=O (stereo not drawn)	Sonic hedgehog protein (Shh)	-0.695
CC(C)=CCCC=C(C)C(O)C1C=CC2C(=O)N(c3ccccc3)C(=O)C2N1Nc1ccc(C#N)cc1 (stereo not drawn)	Sonic hedgehog protein (Shh)	0.335
COCCOC(=O)N1C(=O)[C@@]2(c3cc(C#CC4(O)CCCCCC4)ccc31)[C@H](c1ccc(O)cc1)N1[C@H](c3ccccc3)[C@H](c3ccccc3)OC(=O)[C@H]1[C@@H]2C(=O)N1CCCCCCC1	Sonic hedgehog protein (Shh)	1.09
COC(=O)[C@]1(Cc2ccccc2)N=C(c2ccc(OCCCO)cc2)O[C@@H]1c1ccccc1CN=[N+]=[N-]	Sonic hedgehog protein (Shh)	0.895
CC(C)N1C(=O)C[C@@](C(=O)NCCN2CCOCC2)(c2ccc([N+](=O)[O-])cc2)[C@H]1c1ccc(CO)cc1	Sonic hedgehog protein (Shh)	-1.1
COc1ccc(C(=O)Nc2ccc(CN3C(=O)[C@@]4(O[C@@H](CCn5cc(CCO)nn5)[C@H]([Si](C)(C)c5ccc(OC)cc5)[C@H]4C)c4ccccc43)cc2)cc1	Sonic hedgehog protein (Shh)	1.4
C=CCOC(=O)[C@H]1[C@@H]2C(=O)O[C@@H](c3ccccc3)[C@@H](c3ccccc3)N2[C@@H](c2ccc(OCCOC(=O)[C@H]3C[C@H]4C(=O)N[C@@H](CC(C)C)C(=O)N4[C@H]3c3ccc(O)cc3)cc2)[C@]12C(=O)Nc1ccccc12	Sonic hedgehog protein (Shh)	2.06
CN(C)CCCC[C@@H]1NC(=O)[C@H]2C[C@@H](C(=O)O)[C@@H](c3ccc(O)cc3)N2C1=O	Sonic hedgehog protein (Shh)	2.17
CC(C)NC(=O)[C@@]1(C)c2ccccc2C(=O)N(Cc2ccccc2)[C@H]1c1ccc(CO)cc1	Sonic hedgehog protein (Shh)	0.504

---

test: JC-1 mitochondrial signal, unstimulated adipocytes – cell-based, JC-1 fluorescence, 3T3-L1 adipocytes, 24 h, 100 nL compound, profiling panel (AID 1168); settings: JC-1 mitochondrial fluorescence, higher = more signal, called active from +8 up or from −8 down; also: test concentration not given here
Could you label it satisfied if measured z-score is -1 or higher, and not satisfied otherwise?

compound	category label
Cc1ccccc1C(O)C1C=CC2C(=O)N(c3ccccc3)C(=O)C2N1Nc1ccccc1 (configuration not stated)	satisfied
COCCOC(=O)N1C(=O)[C@@]2(c3cc(C#CCCO)ccc31)[C@H](c1ccccc1OCCO)N1[C@H](c3ccccc3)[C@H](c3ccccc3)OC(=O)[C@H]1[C@@H]2C(N)=O	satisfied
COc1ccc(C(O)C2C=CC3C(=O)N(c4ccccc4)C(=O)C3N2Nc2ccc([N+](=O)[O-])cc2)c2ccccc12 (configuration not stated)	not satisfied
C=CCC(OC(C)=O)[C@@H]1[C@@H](N(Cc2cc3ccccc3o2)C(=O)c2cccc3ccccc23)c2cc(OCCCO)ccc2N1C(=O)c1ccc2ccccc2n1 (some centres not stated)	satisfied
CC(C)(C)N1CC=CC23O[C@@H]4/C=C\CCCOC(=O)C4[C@H]2C(=O)N(CCCCCO)[C@@H]3C1=O (some centres not stated)	satisfied
O=C1C2C=CC(C(O)c3c(F)cccc3Cl)N(Nc3ccc([N+](=O)[O-])cc3)C2C(=O)N1c1ccccc1 (configuration not stated)	not satisfied

---

We begin with a simple list: items and their reported composite z-score.
test system: Wnt5a (protein binding on small-molecule microarray); test: small molecules binding Wnt5a protein – biophysical, small-molecule microarray, 635/667 nm fluorescence, primary screen (AID 1142); details: 635 nm fluorescence, higher = more signal;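 also: fluorescence read at 667 nm with signal to noise per printed feature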
experimental readout: composite z-score

compound	experimental readout	result number
CC(C)NC(=O)[C@@]1(c2ccc([N+](=O)[O-])cc2)CC(=O)N(CC23CC4CC(CC(C4)C2)C3)[C@@H]1c1ccc(CO)cc1	composite z-score	0.821
CCCCCC1=C2CNC(CC(C)C)(C(=O)OC)C=C2C(C)C1=O (centres undefined)	composite z-score	-0.025
CO[C@H]1O[C@H](CO)[C@@H](OC(=O)Nc2ccccc2-c2ccccc2)[C@H](OC(=O)Nc2ccccc2)[C@H]1OC(=O)Nc1ccccc1	composite z-score	1.32
C=CCOC(=O)[C@@H]1[C@H]2C(=O)O[C@H](c3ccccc3)[C@H](c3ccccc3)N2[C@H](c2ccc(OCCOC(=O)[C@H]3C[C@H]4C(=O)NCC(=O)N4[C@H]3c3cccc(OCCO)c3)cc2)[C@@]12C(=O)Nc1ccc(I)cc12	composite z-score	0.569
